target.entity: T1, NEMO (NF-κB essential modulator), tag-free, biotinylated (human, UniProt Q9Y6K9 1-419, biotin (in vitro biotinylation kit, biotin:NEMO molar ratio 9:1))
T1 construct: NEMO, NF-κB essential modulator, human, 48 kDa; also called biotinylated NEMO; biotin-NEMO; source: E. coli BL21(DE3), purified (glutathione sepharose), GST removed with thrombin, biotinylated in vitro
assay.name: peptide or protein array; Invitrogen Protoarray v4.0, about 8,400 human proteins spotted on nitrocellulose-coated glass slides; 10 µg biotinylated tag-free NEMO in 120 µl probing buffer (PBS, 0.5 mM DTT, 5 mM MgCl2, 5% glycerol, 0.05% Triton X-100), 4°C, 1.5 h; bound NEMO detected with labelled streptavidin; hits Z-score > 3, hits of the biotin-GST control array subtracted
test.context: both partners purified
result.type: binding result

| binder | result.type | reading |
| --- | --- | --- |
| Calbindin D28K (natural protein, human, UniProt P05937-1 1-261, looked up, also called CALB1; source: insect cell/baculovirus, purified, spotted (Invitrogen Protoarray v4.0)) MAESHLQSSLITASQFFEIWLHFDADGSGYLEGKELQNLIQELQQARKKAGLELSPEMKTFVDQYGQRDDGKIGIVELAHVLPTEENFLLLFRCQQLKSCEEFMKTWRKYDTDHSGFIETEELKNFLKDLLEKANKTVDDTKLAEYTDLMLKLFDSNNDGKLELTEMARLLPVQENFLLKFQGIKMCGKEFNKAFELYDQDGNGYIDENELDALLKDLCEKNKQDLDINNITTYKKNIMALSDGGKLYRTDLALILCAGDN | binding result | binds |
| Odontogenic, ameloblast associated (natural protein, human, UniProt A1E959 16-279, looked up, Odontogenic, ameloblast associated, human; also called ODAM; source: insect cell/baculovirus, purified, spotted (Invitrogen Protoarray v4.0)) APLIPQRLMSASNSNELLLNLNNGQLLPLQLQGPLNSWIPPFSGILQQQQQAQIPGLSQFSLSALDQFAGLLPNQIPLTGEASFAQGAQAGQVDPLQLQTPPQTQPGPSHVMPYVFSFKMPQEQGQMFQYYPVYMVLPWEQPQQTVPRSPQQTRQQQYEEQIPFYAQFGYIPQLAEPAISGGQQQLAFDPQLGTAPEIAVMSTGEEIPYLQKEAINFRHDSAGVFMPSTSPKPSTTNVFTSAVDQTITPELPEEKDKTDSLREP | binding result | binds |
| Pleckstrin homology domain containing, family J member 1 (natural protein, human, UniProt Q9NW61 1-149, looked up, Pleckstrin homology domain containing, family J member 1, human; also called PLEKHJ1; source: insect cell/baculovirus, purified, spotted (Invitrogen Protoarray v4.0)) MRYNEKELQALSRQPAEMAAELGMRGPKKGSVLKRRLVKLVVNFLFYFRTDEAEPVGALLLERCRVVREEPGTFSISFIEDPERKYHFECSSEEQCQEWMEALRRASYEFMRRSLIFYRNEIRKVTGKDPLEQFGISEEARFQLSGLQA | binding result | binds |

The reported numbers originate from paper PMC2808332.
